# target: FtsZ (Acinetobacter baumannii, UniProt A0ABX6CKC9)
# Sequence (A0ABX6CKC9 entry or part of it): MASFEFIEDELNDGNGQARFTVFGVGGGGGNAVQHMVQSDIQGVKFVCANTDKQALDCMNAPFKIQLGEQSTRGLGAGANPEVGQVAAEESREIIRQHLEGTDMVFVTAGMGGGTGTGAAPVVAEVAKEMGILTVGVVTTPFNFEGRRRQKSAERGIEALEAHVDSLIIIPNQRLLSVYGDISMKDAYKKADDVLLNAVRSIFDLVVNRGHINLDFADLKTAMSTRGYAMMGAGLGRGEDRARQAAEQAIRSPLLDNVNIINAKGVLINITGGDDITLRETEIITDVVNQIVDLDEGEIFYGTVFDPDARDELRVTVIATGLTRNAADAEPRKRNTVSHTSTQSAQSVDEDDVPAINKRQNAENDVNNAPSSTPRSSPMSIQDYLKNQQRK

| compound | IC50 [µM] |
| --- | --- |
| COC(=O)CSc1ccc2nsnc2c1[N+](=O)[O-] [C109] | 11.8 |

From: paper PMC9687021
